Source of measurements: ChEMBL document CHEMBL3885861

- Species on record: Rattus norvegicus
- methodSummary: Open TG-GATES - Regimen: Daily Repeat
- Assay type: toxicity, organism-based, Sprague-Dawley
- Design: regimen Daily Repeat, gender Male, age 6 weeks
- conditionsUsed: in vivo, po, 100 mg/kg, […], tissue Blood, route gavage, dose level Low, time 7 day
measurementName: Ht (%)

[
  {
    "molecule": "COc1ccc2[nH]c([S+]([O-])Cc3ncc(C)c(OC)c3C)nc2c1 (stereo not given)",
    "quantitativeReadout": 39.5
  },
  {
    "molecule": "CCOc1ccc(NC(=O)CC(C)O)cc1 (stereo not given)",
    "quantitativeReadout": 40.1
  },
  {
    "molecule": "CCOC(=O)CCC(=O)O[C@H]1[C@H](O[C@@H]2[C@@H](C)[C@H](O[C@H]3C[C@@](C)(OC)[C@@H](O)[C@H](C)O3)[C@@H](C)C(=O)O[C@H](CC)[C@@](C)(O)[C@H](O)[C@@H](C)C(=O)[C@H](C)C[C@@]2(C)O)O[C@H](C)C[C@@H]1N(C)C [ERYTHROMYCIN ETHYLSUCCINATE]",
    "quantitativeReadout": 40
  },
  {
    "molecule": "NC(N)=Nc1nc(CSCCC(N)=NS(N)(=O)=O)cs1",
    "quantitativeReadout": 37.6
  },
  {
    "molecule": "COC1=CC(=O)C[C@@H](C)[C@]12Oc1c(Cl)c(OC)cc(OC)c1C2=O",
    "quantitativeReadout": 40.4
  }
]

----------
- Organism: Rattus norvegicus
- methodSummary: Open TG-GATES - Regimen: Daily Repeat
- Format: toxicity, organism-based, Sprague-Dawley
- Set-up: regimen Daily Repeat, gender Male, age 6 weeks
- conditionsUsed: in vivo, po, 1000 mg/kg, 72 h, tissue Blood, route gavage, dose level High, time 3 day
Property: Eos; scope: individual compounds

[
  {
    "compound": "NC(N)=Nc1nc(CSCCC(N)=NS(N)(=O)=O)cs1 [FAMOTIDINE]",
    "Eos / %": 1
  },
  {
    "compound": "CCOC(=O)CCC(=O)O[C@H]1[C@H](O[C@@H]2[C@@H](C)[C@H](O[C@H]3C[C@@](C)(OC)[C@@H](O)[C@H](C)O3)[C@@H](C)C(=O)O[C@H](CC)[C@@](C)(O)[C@H](O)[C@@H](C)C(=O)[C@H](C)C[C@@]2(C)O)O[C@H](C)C[C@@H]1N(C)C [ERYTHROMYCIN ETHYLSUCCINATE]",
    "Eos / %": 1
  },
  {
    "compound": "COc1ccc2[nH]c([S+]([O-])Cc3ncc(C)c(OC)c3C)nc2c1 (stereo unspecified) [OMEPRAZOLE]",
    "Eos / %": 0.6
  },
  {
    "compound": "COC1=CC(=O)C[C@@H](C)[C@]12Oc1c(Cl)c(OC)cc(OC)c1C2=O [GRISEOFULVIN]",
    "Eos / %": 1
  },
  {
    "compound": "CC(C)OC(=O)C(C)(C)Oc1ccc(C(=O)c2ccc(Cl)cc2)cc1 [FENOFIBRATE]",
    "Eos / %": 1
  },
  {
    "compound": "CCOc1ccc(NC(=O)CC(C)O)cc1 (stereo unspecified) [BUCETIN]",
    "Eos / %": 0.8
  }
]
